test system: ATP; experiment: switch fluorescence ratio, 500 uM ATP over buffer (Cy3 cluster intensity, sum of 5 cycles each) (fold (ratio)); higher = stronger signal-on switching upon ATP binding; sequences stand for … in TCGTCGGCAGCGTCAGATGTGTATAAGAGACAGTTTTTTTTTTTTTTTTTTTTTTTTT…TC; settings: aptamer strand: ATP DNA aptamer (quencher-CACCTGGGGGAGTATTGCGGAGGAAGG + anchor), 100 nM annealed; ATP concentration: 500 uM;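 also: ATP exposure 15 min at 22 °C before imaging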
Here, each record is paired with measured switch fluorescence ratio data.

Check out these entries, answers already filled in.
>  <sequenceChain>
GACTATTGGT

>  <switch fluorescence ratio>
0.969

$$$$
>  <sequenceChain>
AGTTGCTGCT

>  <switch fluorescence ratio>
0.995

$$$$
>  <sequenceChain>
CTGCAATAGA

>  <switch fluorescence ratio>
4.41

$$$$
>  <sequenceChain>
GGAAGTGGTC

>  <switch fluorescence ratio>
1.01

$$$$
>  <sequenceChain>
TGAGTGGGGC

>  <switch fluorescence ratio>
1.03

$$$$
>  <sequenceChain>
GATTTAATCC

>  <switch fluorescence ratio>
0.974

$$$$
>  <sequenceChain>
GAGGCGGGGG

>  <switch fluorescence ratio>
0.988

$$$$
>  <sequenceChain>
CGGGGCGGGG

>  <switch fluorescence ratio>
0.985

$$$$
>  <sequenceChain>
CATGGGGTTA

>  <switch fluorescence ratio>
1.04

$$$$
>  <sequenceChain>
GATTTGTGGG

>  <switch fluorescence ratio>
0.994

$$$$

Task: What switch fluorescence ratio value was documented for this sequence, TTCAAGGAGT ?
Result: 1.03

Task: Further, for CTGTTGTCGG ?
Result: 0.989

Task: Further, for GGTTTAATTT ?
Result: 0.993

Task: Further, for TGGGAAGTTC ?
Result: 1.04

Task: Further, for TTGTGGGTAG ?
Result: 1.02

Task: Further, for TTTGAGGTGA ?
Result: 1.04
